Quick reference for Saturation value among some binders
Biological target: T1, human IGF1R extracellular domain, His-tagged (human, UniProt P08069 31-932)
T1 construct: Bought (R&D Systems 391-GR or Sino Biological 10164-H08H); also called recombinant IGF1R; ECD of IGF1R
Assay: ELISA on IGF1R protein, second experiment
property: Saturation value

binder	result
1564-VL(N95aD) (antibody, V domains shown) VH: EVQLLESGGGLVQPGGSLRLSCAASGFTFSSYDMSWVRQAPGKGLEWVSAISYDNGNTYYADSVKGRFTISRDNSKNTLYLQMNSLRAEDTAVYYCAKGVLTTLMNWFDYWGQGTLVTVSS VL: QSVLTQPPSASGTPGQRVTISCTGSSSNIGSNDVSWYQQLPGTAPKLLIYANSNRPSGVSDRFSGSKSGTSASLAISGLRSEDEADYYCGAWDDSLDGYVFGGGTKLTVL	0.896
1564-VH(N54D) (antibody, V domains shown) VH: EVQLLESGGGLVQPGGSLRLSCAASGFTFSSYDMSWVRQAPGKGLEWVSAISYDDGNTYYADSVKGRFTISRDNSKNTLYLQMNSLRAEDTAVYYCAKGVLTTLMNWFDYWGQGTLVTVSS VL: QSVLTQPPSASGTPGQRVTISCTGSSSNIGSNDVSWYQQLPGTAPKLLIYANSNRPSGVPDRFSGSKSGTSASLAISGLRSEDEADYYCGAWDDSLNGYVFGGGTKLTVL	0.933
1564 clone (anti-IGF1R antibody, format not stated) (antibody, V domains shown) VH: EVQLLESGGGLVQPGGSLRLSCAASGFTFSSYDMSWVRQAPGKGLEWVSAISYDNGNTYYADSVKGRFTISRDNSKNTLYLQMNSLRAEDTAVYYCAKGVLTTLMNWFDYWGQGTLVTVSS VL: QSVLTQPPSASGTPGQRVTISCTGSSSNIGSNDVSWYQQLPGTAPKLLIYANSNRPSGVPDRFSGSKSGTSASLAISGLRSEDEADYYCGAWDDSLNGYVFGGGTKLTVL	0.977
1564-VH(N54Q) (antibody, V domains shown) VH: EVQLLESGGGLVQPGGSLRLSCAASGFTFSSYDMSWVRQAPGKGLEWVSAISYDQGNTYYADSVKGRFTISRDNSKNTLYLQMNSLRAEDTAVYYCAKGVLTTLMNWFDYWGQGTLVTVSS VL: QSVLTQPPSASGTPGQRVTISCTGSSSNIGSNDVSWYQQLPGTAPKLLIYANSNRPSGVPDRFSGSKSGTSASLAISGLRSEDEADYYCGAWDDSLNGYVFGGGTKLTVL	0.885
